- Test system: A375
- assay.details: cells
- Set-up: species or system C2C12, MKN28; PrestoBlue cell proliferation/viability assay, absorbance 570 nm, 24 h
- cond: Homo sapiens, A-375, 24 h; read-out: Ori IC50
measurement.type: pIC50
Lab note — pIC50 values are minus log10 of concentrations in M.

Which measured pIC50 value corresponds to C=C1C(=O)[C@]23[C@H](O)[C@H]1CC[C@H]2[C@@]12CO[C@]3(O)[C@@H](O)[C@@H]1C(C)(C)CC[C@@H]2O [Ori] ?
4.60

* * *

- target.or.system: Ezrin (Homo sapiens, UniProt P15311)
- Construct: gene EZR
- Sequence (P15311 whole entry): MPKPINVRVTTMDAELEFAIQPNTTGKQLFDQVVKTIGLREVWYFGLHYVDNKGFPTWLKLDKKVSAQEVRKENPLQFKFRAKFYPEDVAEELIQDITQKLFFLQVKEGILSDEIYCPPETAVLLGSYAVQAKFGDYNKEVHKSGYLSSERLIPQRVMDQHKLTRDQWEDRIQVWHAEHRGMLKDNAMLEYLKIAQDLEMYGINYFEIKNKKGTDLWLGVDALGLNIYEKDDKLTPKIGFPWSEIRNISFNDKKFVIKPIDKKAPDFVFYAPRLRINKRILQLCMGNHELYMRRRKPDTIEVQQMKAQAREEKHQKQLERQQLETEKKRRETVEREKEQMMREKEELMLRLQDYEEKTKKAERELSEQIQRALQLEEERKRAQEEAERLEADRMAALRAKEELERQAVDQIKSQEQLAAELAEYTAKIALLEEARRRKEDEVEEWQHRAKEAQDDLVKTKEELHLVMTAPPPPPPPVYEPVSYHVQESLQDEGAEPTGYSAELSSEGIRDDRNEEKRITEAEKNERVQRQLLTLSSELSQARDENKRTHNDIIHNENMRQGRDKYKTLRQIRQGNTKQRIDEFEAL
- assay.details: CETSA dose response at […] °C in MKN28 cells (EC50 […] in A375), Tm shift […] to […] °C; DARTS with MS and Western blot
- Assay type: cell-based
measurement.type: EC50

I have this compound here, C=C1C(=O)[C@@]23C(CC[C@@H]1[C@H]2O)[C@]12CCCC(C)(C)C1[C@H](O)[C@@]3(O)O[C@H]2O (stereo partly shown) [Iru] , and I need its recorded EC50.
13 µM

* * *

- target.or.system: Ezrin (Homo sapiens, UniProt P15311)
- Construct: gene EZR
- assay.details: CETSA dose response at […] °C in A375 cells (EC50 […] in MKN28), Tm shift […] to […] °C; DARTS with MS and Western blot
- Type: cell-based
measurement.type: EC50 (µM)
Entry rule: numbers only, all in µM.

# input compound: C=C1C(=O)[C@]23[C@H](O)[C@H]1CC[C@H]2[C@@]12CO[C@]3(O)[C@@H](O)[C@@H]1C(C)(C)CC[C@@H]2O ; wanted: its EC50
19
